System: PDAC030T
measurement-protocol: Cell viability (CellTiter-Blue), IC50 on PDAC030T
Format: cell-based, human
test-context: Homo sapiens, 72 h treatment
measure-name: IC50 (nM)
Please reply with the bare figure in nM and do not write the unit itself.

Q: Reported IC50 for `CC[C@@H](C(=O)O)[C@@H]1O[C@@H]([C@@H](C)[C@H](O)[C@H](C)C(=O)[C@H](CC)[C@H]2O[C@]3(C=C[C@@H](O)[C@]4(CC[C@@](C)([C@H]5CC[C@](O)(CC)[C@H](C)O5)O4)O3)[C@H](C)C[C@@H]2C)[C@@H](C)C[C@@H]1C` : what is it?
Result: 1180

Q: Reported IC50 for C#CCN[C@H]1C=C[C@]2(O[C@H]([C@@H](CC)C(=O)[C@@H](C)[C@@H](O)[C@H](C)[C@@H]3O[C@@H]([C@@H](CC)C(=O)OC4O[C@@H]5O[C@]6(C)CC[C@H]7[C@H](C)CC[C@@H]([C@H]4C)[C@@]57OO6)CC[C@@H]3C)[C@@H](C)C[C@H]2C)O[C@@]12CC[C@@](C)([C@H]1CC[C@](O)(CC)[C@H](C)O1)O2 (stereo partly drawn) : what is it?
Result: 90

Q: Reported IC50 for CC[C@@H](C(=O)OC1O[C@@H]2O[C@]3(C)CC[C@H]4[C@H](C)CC[C@@H]([C@H]1C)[C@@]24OO3)[C@@H]1O[C@@H]([C@@H](C)[C@H](O)[C@H](C)C(=O)[C@H](CC)[C@H]2O[C@]3(C=C[C@@H](NC4CC4)[C@]4(CC[C@@](C)([C@H]5CC[C@](O)(CC)[C@H](C)O5)O4)O3)[C@H](C)C[C@@H]2C)[C@@H](C)C[C@@H]1C (stereo partly drawn) : what is it?
Result: 120

These data points were gathered from patent US20250250285A1.
